Data credit: patent US8975267B2

Listing of entries alongside the reported pIC50.
- system-name: UniProt P33981
- Sequence (P33981 2-857): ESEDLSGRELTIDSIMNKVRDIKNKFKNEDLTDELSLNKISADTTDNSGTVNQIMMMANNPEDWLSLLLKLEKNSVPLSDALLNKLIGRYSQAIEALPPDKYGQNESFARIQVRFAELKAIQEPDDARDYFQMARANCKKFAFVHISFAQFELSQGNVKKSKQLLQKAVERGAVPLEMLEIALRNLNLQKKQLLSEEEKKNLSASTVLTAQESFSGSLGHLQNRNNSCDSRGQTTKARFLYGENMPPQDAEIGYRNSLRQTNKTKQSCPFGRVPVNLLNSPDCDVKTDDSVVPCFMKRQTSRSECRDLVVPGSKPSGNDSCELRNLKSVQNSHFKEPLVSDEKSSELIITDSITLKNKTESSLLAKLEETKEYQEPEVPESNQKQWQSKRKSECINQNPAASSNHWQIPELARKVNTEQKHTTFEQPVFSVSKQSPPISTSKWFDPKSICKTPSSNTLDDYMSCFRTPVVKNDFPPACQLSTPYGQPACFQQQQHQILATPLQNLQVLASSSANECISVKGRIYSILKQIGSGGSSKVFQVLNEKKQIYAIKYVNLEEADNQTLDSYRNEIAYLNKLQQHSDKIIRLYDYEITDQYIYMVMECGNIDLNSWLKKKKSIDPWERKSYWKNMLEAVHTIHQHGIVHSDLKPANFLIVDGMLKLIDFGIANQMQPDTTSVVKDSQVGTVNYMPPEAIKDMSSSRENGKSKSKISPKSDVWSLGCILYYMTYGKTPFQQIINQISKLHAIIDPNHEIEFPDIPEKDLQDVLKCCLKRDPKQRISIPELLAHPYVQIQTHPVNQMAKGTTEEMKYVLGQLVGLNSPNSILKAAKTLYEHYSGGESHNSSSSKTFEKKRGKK
pIC50: −log10 of the molar value. Where a name gives a salt, the structure may show the parent alone.

compound: Cn1c(-c2ccccc2)c(C(N)=O)c2ccc3cnc(N)nc3c21 [compound 4, reference compound]
pIC50: < 5.30
//
compound: NC(=O)c1c(-c2ccccc2)[nH]c2c1ccc1cnc(N)nc12 [compound 2, reference compound]
pIC50: < 5.30
//
compound: Cn1c2c(c(C(N)=O)c1-c1ccccc1)CCc1cnc(N)nc1-2 [compound 3, reference compound]
pIC50: < 5.30
//
compound: CSc1ncc2c(n1)-c1c(c(C(N)=O)cn1C1CCNCC1)CC2 [Compound 32, hydrochloride]
pIC50: < 5.00
//
compound: Cn1cc(C(N)=O)c2c1-c1nc(N)ncc1CC2 [Ref. cmpound 1, reference compound]
pIC50: < 5.00
